Tested on: MOLT-4
testDescription: NCI tumour cell line growth inhibition, 48 h
Calls of active or inactive are those of the source. No stated cut-off is given here; in the data, active = GI50 up to about 1.1 µM and inactive = higher.
Outcome codes: active, inactive

>  <compound>
CNC(=S)N/N=C1\CC(c2ccccc2)Oc2ccccc21 (stereo not given)

>  <assignedCategory>
inactive

$$$$
>  <compound>
O=C1C=C2CCC[C@H]3OC(=O)C[C@@]23CC1

>  <assignedCategory>
inactive

$$$$
>  <compound>
CC(=O)OC12OC(C)(C3C(=O)N(c4ccccc4)C(=O)C31)N(c1ccccc1)C2=O (stereo not given)

>  <assignedCategory>
inactive

$$$$
>  <compound>
O=C(CC(=O)c1ccccc1)C(=O)NC12CC3CC(CC(C3)C1)C2

>  <assignedCategory>
inactive

$$$$
>  <compound>
COc1ccc2[nH]c3c(C)c4ccnc(NCCCN(C)CCCNc5ccc6nnn7c8ccccc8c(=O)c5c67)c4c(C)c3c2c1

>  <assignedCategory>
active

$$$$
>  <compound>
COc1ccc2c(c1)[n+]([O-])c(-c1ccc(Cl)c(Cl)c1)c(N)[n+]2[O-]

>  <assignedCategory>
inactive

$$$$
>  <compound>
CC1=C(C(=O)Nc2ccccc2C)C(c2ccc(Cl)cc2)C(C(=O)Nc2ccccc2C)=C(C)N1

>  <assignedCategory>
inactive

$$$$
>  <compound>
Cc1ccc2nc3c(C)c(Cl)c(=O)cc-3sc2c1

>  <assignedCategory>
inactive

$$$$
>  <compound>
CCOC(=O)c1csc(-c2cn(C)c3c2C(=O)C(OC)=CC3=O)n1

>  <assignedCategory>
inactive

$$$$
>  <compound>
COc1ccc(-c2nc3ccccc3s2)cc1OC

>  <assignedCategory>
inactive

$$$$

###

Tested on: RPMI-8226
testDescription: NCI tumour cell line growth inhibition, 48 h
The source made the active and inactive calls. Rule as the data show it: active = GI50 up to about 1.1 µM and inactive = higher.
observable: GI50

>  <compound>
Fc1sc2c(c1F)C1CCC2C1 (stereo unspecified)

>  <measured>
31.9 µM (inactive)

$$$$
>  <compound>
Cc1oc2c(C)c(O)c3c(c2c1C1(C)OCCO1)C(=O)C=C(Cl)C3=O

>  <measured>
> 100 µM (inactive)

$$$$
>  <compound>
Cc1nc2ccc(NC3OCC(O)C(O)C3O)cc2c(=O)n1-c1ccccc1 (stereo unspecified)

>  <measured>
> 100 µM (inactive)

$$$$
>  <compound>
C=CCC(CNC(=O)OCc1ccccc1)O[Si](C)(C)C(C)(C)C (stereo unspecified)

>  <measured>
20 µM (inactive)

$$$$
>  <compound>
COc1ccc(NC(=O)CC/C(CC(=O)c2ccco2)=N/Nc2ccc([N+](=O)[O-])cc2[N+](=O)[O-])cc1

>  <measured>
17.1 µM (inactive)

$$$$
>  <compound>
[BH3-][P+]1(CC[P@@+]([BH3-])(c2ccccc2)c2ccccc2OC)[C@@H](C)[C@@H](O)[C@H](O)[C@@H]1C (stereo partly specified)

>  <measured>
23.4 µM (inactive)

$$$$
>  <compound>
Oc1cccc(-c2nc3cc(F)ccc3s2)c1

>  <measured>
20.3 µM (inactive)

$$$$
>  <compound>
N#Cc1c(O)cc(=O)n2c1[nH]c1ccccc12

>  <measured>
> 100 µM (inactive)

$$$$
>  <compound>
Cc1c(N)nc(C(CC(N)=O)NCC(N)C(N)=O)nc1C(=O)NC(C(=O)NC(C)C(O)C(C)C(=O)NC(C(=O)NCCc1nc(-c2nc(C(=O)NCCCNC(C)c3ccccc3)cs2)cs1)C(C)O)C(OC1OC(CO)C(O)C(O)C1OC1OC(CO)C(O)C(OC(N)=O)C1O)c1c[nH]cn1 (stereo unspecified)

>  <measured>
3.21 µM (inactive)

$$$$
>  <compound>
NC(=O)NNc1nc2ccccc2c(=O)n1NC(=O)C(=O)Nc1ccc(Cl)cc1Cl

>  <measured>
> 100 µM (inactive)

$$$$
>  <compound>
Cc1cc(S(=O)(=O)Nc2nc(N)n(-c3ccccc3)n2)c(S)cc1Cl

>  <measured>
> 100 µM (inactive)

$$$$

###

GI50: recorded values
Tested on: OVCAR-5
testDescription: NCI tumour cell line growth inhibition, 48 h
The source made the active and inactive calls. No stated cut-off is given here; in the data, active = GI50 up to about 1.1 µM and inactive = higher.
observable: GI50

>  <compound>
CCN1/C(=C/C#C/C(C)=C\c2sc3ccccc3[n+]2CC)Sc2ccccc21

>  <assayedTarget>
OVCAR-5

>  <measured>
3.44 µM (inactive)

$$$$
>  <compound>
CC[C@H](C)C1=C(O)[N@+]2([O-])Oc3ccc(-c4c(O)c(O)c(-c5ccc(OC(C)=O)cc5)c(OC(C)=O)c4OC(C)=O)cc3O[C@]2([C@@H](C)CC)C(=O)N1O

>  <assayedTarget>
OVCAR-5

>  <measured>
47.1 µM (inactive)

$$$$
>  <compound>
CCN1/C(=C/C#C/C(C)=C\c2sc3ccc(Cl)cc3[n+]2CC)Sc2ccc(Cl)cc21

>  <assayedTarget>
OVCAR-5

>  <measured>
7.94 µM (inactive)

$$$$
>  <compound>
N#Cc1c(NC(=S)Nc2ccc(Cl)cc2)sc2c1CCCC2

>  <assayedTarget>
OVCAR-5

>  <measured>
> 100 µM (inactive)

$$$$
>  <compound>
Nc1ccn(C2OC(C(OC3OC(CO)C(O)C(N)C3O)C(O)C(O)C(O)C(O)CO)C(N)C(O)C2O)c(=O)n1 (stereo unspecified)

>  <assayedTarget>
OVCAR-5

>  <measured>
15 µM (inactive)

$$$$
>  <compound>
COC(=O)/C(=C\Nc1cccc(C)n1)S(=O)(=O)c1ccc(C)cc1

>  <assayedTarget>
OVCAR-5

>  <measured>
> 100 µM (inactive)

$$$$
>  <compound>
O=[N+]([O-])C(=C/C1CCCCC1)/C(=C\C1CCCCC1)[N+](=O)[O-]

>  <assayedTarget>
OVCAR-5

>  <measured>
11.7 µM (inactive)

$$$$
>  <compound>
C=C1C(=O)O[C@@H]2C=C(C)C3=CC(=O)[C@](C)(C[C@H](OC(=O)/C(C)=C\C)[C@@H]12)O3

>  <assayedTarget>
OVCAR-5

>  <measured>
1.97 µM (inactive)

$$$$
>  <compound>
NC(=O)Nc1ccc(C(=O)NCCCNC(=O)c2ccc(NC(N)=O)cc2)cc1

>  <assayedTarget>
OVCAR-5

>  <measured>
> 100 µM (inactive)

$$$$
>  <compound>
CC(C)=CCC12Cc3ccc(O)cc3C(C(C)CN1)C2C (stereo unspecified)

>  <assayedTarget>
OVCAR-5

>  <measured>
58.9 µM (inactive)

$$$$
>  <compound>
O=C1C=CC(=O)c2c(O)ccc(O)c21 [NAPHTHAZALIN]

>  <assayedTarget>
OVCAR-5

>  <measured>
6.95 µM (inactive)

$$$$
>  <compound>
O=C(c1ccccc1)c1ccc2c(c1)NC(=O)c1ccccc1SSc1ccccc1C(=O)N2

>  <assayedTarget>
OVCAR-5

>  <measured>
> 100 µM (inactive)

$$$$
>  <compound>
Cc1c2c3ccccc3nc-2n(C)c2ccccc12

>  <assayedTarget>
OVCAR-5

>  <measured>
2.61 µM (inactive)

$$$$
>  <compound>
CC1(C)CCCCCCCCCC2CC2CCC(C)(C)C1=O (stereo unspecified)

>  <assayedTarget>
OVCAR-5

>  <measured>
21.2 µM (inactive)

$$$$
>  <compound>
CCC(=O)Nc1ncnc2ncn(C(=O)CC)c12

>  <assayedTarget>
OVCAR-5

>  <measured>
> 100 µM (inactive)

$$$$
>  <compound>
CC1=C(C(=O)CC(=O)C(=O)Nc2cccc(C)c2C)Sc2ccccc2N1

>  <assayedTarget>
OVCAR-5

>  <measured>
> 100 µM (inactive)

$$$$
>  <compound>
O=c1[nH]cc(COCCO)c(=O)[nH]1

>  <assayedTarget>
OVCAR-5

>  <measured>
> 100 µM (inactive)

$$$$
>  <compound>
Cc1cc(N(CCC#N)CCC#N)ccc1/N=N/c1cccc(Cl)c1

>  <assayedTarget>
OVCAR-5

>  <measured>
> 100 µM (inactive)

$$$$
>  <compound>
O=c1[nH]c(=O)c2c([nH]1)[nH]c1ccc(Br)cc12

>  <assayedTarget>
OVCAR-5

>  <measured>
> 100 µM (inactive)

$$$$
>  <compound>
CC(=O)OC/C=C\Cn1nc(Br)c(=O)[nH]c1=O

>  <assayedTarget>
OVCAR-5

>  <measured>
17.9 µM (inactive)

$$$$
>  <compound>
Cn1c(=O)c2nc[nH]c2n(C)c1=O [THEOPHYLLINE]

>  <assayedTarget>
OVCAR-5

>  <measured>
> 100 µM (inactive)

$$$$

###

Tested on: A498
testDescription: NCI tumour cell line growth inhibition, 48 h
Calls of active or inactive are those of the source. No stated cut-off is given here; in the data, active = GI50 up to about 1.1 µM and inactive = higher.
Below is a list of entries, each paired with its recorded GI50 value.
observable: GI50

>  <compound>
Cc1cc(Cl)cc2c1NC(=O)C2=O.O=C(c1ccccc1)C(F)(F)F

>  <measured>
> 100 µM (inactive)

$$$$
>  <compound>
O=C1NC(=O)/C(=N\c2cccc3c(=O)[nH][nH]c(=O)c23)C(c2nc3ccccc3s2)C1=O (stereo unspecified)

>  <measured>
> 100 µM (inactive)

$$$$
>  <compound>
COc1cc(C2c3cccc4cccc(c34)C3CCC(=O)N32)cc(OC)c1O (stereo unspecified)

>  <measured>
> 50 µM (inactive)

$$$$
>  <compound>
CCOC(=O)Cn1c(=O)c2nc(SC)sc2n(-c2ccc(C)cc2)c1=S

>  <measured>
46.8 µM (inactive)

$$$$
>  <compound>
Cn1c(S)nc(C(N)=O)c1N

>  <measured>
> 100 µM (inactive)

$$$$
>  <compound>
COc1ccc2c(c1)CCCc1cn[nH]c1-2

>  <measured>
> 100 µM (inactive)

$$$$
>  <compound>
CCOC(=O)c1sc2nc(SC)nc(Nc3ccc4c(c3)OCO4)c2c1N

>  <measured>
28.4 µM (inactive)

$$$$
>  <compound>
Nc1ccc(/N=N/c2ccccc2)cc1

>  <measured>
46.8 µM (inactive)

$$$$
>  <compound>
BrC(Br)([P+](c1ccccc1)(c1ccccc1)c1ccccc1)[P+](c1ccccc1)(c1ccccc1)c1ccccc1

>  <measured>
22.4 µM (inactive)

$$$$
>  <compound>
N#CC(Cc1ccccc1)N(CCC1=CCCCC1)C(c1ccccc1)c1ccccc1 (stereo unspecified)

>  <measured>
> 100 µM (inactive)

$$$$
>  <compound>
O=C(O)c1ccc2[nH]c(=O)oc2c1

>  <measured>
> 100 µM (inactive)

$$$$

The values you see were collected from ChEMBL document CHEMBL1201862.
